Values were extracted from the array DNA melting data of Ke et al. (doi:10.1101/2024.01.08.574731).

- test: melting temperature; fluorescence melt of hairpins on a sequencing array, two-state fit, raised by 9.35 °C to match UV melts
- study.conditions: sodium 0.088 M
In this section we review reported Tm values for a set of sequences.
Supply the numeric figure in °C, leaving out any unit text.

Here is how some sequences turned out for Tm.
>>> df
                         record_sequence  recorded_number
0      GATCTGGGTACAGATC ((((((....))))))             57.7
1  GAGGAGGGAAACTTCCTC (((((.(....).)))))             41.9
2  CGCTGGCGGAAACGCGCG (((..(((....))))))             52.5

Quick check: Tm of GACGGACGAAAGTCAGTC (((.(((....))).))) ?
59.5

// Tm lookup, key: GCATTGGGAAACTAGTGC (((.(.(....).).)))
29.8

Name the recorded Tm for GCACGACGAAAGTCCTGC (((.(((....))).))) .
45.6

// returns reported Tm for input GAATGCGGAAACGTGTTC (((..((....))..)))
40.3

Given the sequence GACACACGAAAGTGCGTC (((.(((....))).))) , what is its reported Tm?
54.5

Form field: reported Tm of GCGCAAGGAAACTTACGC (((.(((....))).)))
46

Name the reported Tm value associated with the sequence GCCTGAGAAATCAGGC ((((((....))))))
62.5

Any idea what Tm was measured for GTATGTCGAAAGACTTAC (((.(((....))).))) ?
45.5

So what's the measured Tm for this one? GGTACCCGAAAGGGACC (((.(((....))))))
54.5

Which Tm is listed for GATCGTGACACGATC ((((((...)))))) ?
59.9

Please report the recorded Tm for GTCGGAGGAAACTCCAAC ((.((((....)))).)) .
35.5

Which measured Tm value corresponds to GCACCCGGAAACGAGTGC ((((.((....)).)))) ?
51.6
